Each record here notes measured RLU.
target: human TAS2R14 (Homo sapiens, UniProt Q9NYV8); construct: expressed in transfected cells; host or cells: HEK293T-Gα16gust44; assay: Calcium imaging assay (FLIPR), HEK293T-Gα16gust44 cells transfected with human TAS2R14; type: cell-based; details: TAS2R14 trace; Time (s) 120.797 (Chenodeoxycholic Acid 120.781)
Sequence (Q9NYV8 whole entry): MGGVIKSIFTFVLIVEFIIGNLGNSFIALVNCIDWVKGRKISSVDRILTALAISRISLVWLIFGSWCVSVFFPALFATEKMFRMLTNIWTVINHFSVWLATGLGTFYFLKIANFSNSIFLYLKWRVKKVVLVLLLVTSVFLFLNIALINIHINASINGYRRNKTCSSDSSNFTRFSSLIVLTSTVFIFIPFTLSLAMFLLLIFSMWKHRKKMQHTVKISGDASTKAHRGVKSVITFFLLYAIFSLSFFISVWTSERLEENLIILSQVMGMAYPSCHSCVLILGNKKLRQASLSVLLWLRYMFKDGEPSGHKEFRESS
parameter: RLU (RLU)

compound	parameter	assay.value
C[C@H](CCC(=O)NCC(=O)O)[C@H]1CC[C@H]2[C@@H]3[C@H](O)C[C@@H]4C[C@H](O)CC[C@]4(C)[C@H]3C[C@H](O)[C@]12C [Glycocholic Acid, glycocholic acid]	RLU	904.35
C[C@H](CCC(=O)O)[C@H]1CC[C@H]2[C@@H]3[C@H](O)C[C@@H]4C[C@H](O)CC[C@]4(C)[C@H]3C[C@H](O)[C@]12C [Cholic Acid, cholic acid]	RLU	1305.24
C[C@H](CCC(=O)NCCS(=O)(=O)O)[C@H]1CC[C@H]2[C@@H]3[C@H](O)C[C@@H]4C[C@H](O)CC[C@]4(C)[C@H]3C[C@H](O)[C@]12C [Taurocholic Acid, taurocholic acid]	RLU	1025.82
C[C@H](CCC(=O)NCCS(=O)(=O)O)[C@H]1CC[C@H]2[C@@H]3CC[C@@H]4C[C@H](O)CC[C@]4(C)[C@H]3CC[C@]12C [Taurolithocholic Acid, taurolithocholic acid]	RLU	378.298
C[C@H](CCC(=O)O)[C@H]1CC[C@H]2[C@@H]3[C@H](O)C[C@@H]4C[C@H](O)CC[C@]4(C)[C@H]3CC[C@]12C [Chenodeoxycholic Acid, chenodeoxycholic acid]	RLU	516.9

====

# RLU, fluorescence trace per record follows
target: human TAS2R4 (Homo sapiens, UniProt Q9NYW5); construct: expressed in transfected cells; host or cells: HEK293T-Gα16gust44; assay: Calcium imaging assay (FLIPR), HEK293T-Gα16gust44 cells transfected with human TAS2R4; type: cell-based; details: Time (s) 353.547; note: test concentration or dose not given here
Sequence (Q9NYW5 whole entry): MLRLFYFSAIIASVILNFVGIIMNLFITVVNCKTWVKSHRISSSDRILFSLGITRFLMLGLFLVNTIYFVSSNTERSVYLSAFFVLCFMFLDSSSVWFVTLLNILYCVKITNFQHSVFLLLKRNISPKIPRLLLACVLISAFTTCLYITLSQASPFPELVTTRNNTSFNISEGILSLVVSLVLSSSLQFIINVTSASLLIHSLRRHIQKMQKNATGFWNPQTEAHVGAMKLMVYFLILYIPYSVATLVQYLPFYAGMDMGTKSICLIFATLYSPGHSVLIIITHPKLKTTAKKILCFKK
parameter: RLU, fluorescence trace

>>> print(df.to_string())
                            chemical_string                parameter  assay_value
0  C[C@H](CCC(=O)O)[C@H]1CC[C@H]2[C@@H]3[C@@H](O)C[C@@H]4C[C@H](O)CC[C@]4(C)[C@H]3CC[C@]12C  RLU, fluorescence trace  135.981 RLU
1  C[C@H](CCC(=O)O)[C@H]1CC[C@H]2[C@@H]3[C@H](O)C[C@@H]4C[C@H](O)CC[C@]4(C)[C@H]3C[C@H](O)[C@]12C  RLU, fluorescence trace  309.056 RLU
2  C[C@H](CCC(=O)NCC(=O)O)[C@H]1CC[C@H]2[C@@H]3[C@H](O)C[C@@H]4C[C@H](O)CC[C@]4(C)[C@H]3C[C@H](O)[C@]12C  RLU, fluorescence trace  116.889 RLU
3  C[C@H](CCC(=O)NCCS(=O)(=O)O)[C@H]1CC[C@H]2[C@@H]3[C@H](O)C[C@@H]4C[C@H](O)CC[C@]4(C)[C@H]3C[C@H](O)[C@]12C  RLU, fluorescence trace  175.115 RLU
4  C[C@H](CCC(=O)O)[C@H]1CC[C@H]2[C@@H]3CC[C@@H]4C[C@H](O)CC[C@]4(C)[C@H]3C[C@H](O)[C@]12C  RLU, fluorescence trace  326.897 RLU
5  C[C@H](CCC(=O)NCCS(=O)(=O)O)[C@H]1CC[C@H]2[C@@H]3CC[C@@H]4C[C@H](O)CC[C@]4(C)[C@H]3CC[C@]12C  RLU, fluorescence trace  124.878 RLU

====

Molecular target: human TAS2R1 (Homo sapiens, UniProt Q9NYW7)
Construct: expressed in transfected cells; host or cells: HEK293T-Gα16gust44
Sequence (Q9NYW7 1-299): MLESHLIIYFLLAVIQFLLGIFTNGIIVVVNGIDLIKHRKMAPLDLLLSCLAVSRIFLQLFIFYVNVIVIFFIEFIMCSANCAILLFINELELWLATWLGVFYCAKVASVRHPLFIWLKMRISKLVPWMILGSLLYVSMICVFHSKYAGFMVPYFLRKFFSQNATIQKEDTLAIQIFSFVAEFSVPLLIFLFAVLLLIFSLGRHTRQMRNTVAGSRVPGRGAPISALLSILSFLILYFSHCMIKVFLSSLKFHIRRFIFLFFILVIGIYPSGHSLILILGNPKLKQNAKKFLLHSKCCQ
Experiment: Calcium imaging assay (FLIPR), HEK293T-Gα16gust44 cells transfected with human TAS2R1
Format: cell-based
Conditions: Time 60.796 s
Entries and their RLU values follow.
parameter: RLU (RLU)

                            chemical_string  assay_value
0  C[C@H](CCC(=O)O)[C@H]1CC[C@H]2[C@@H]3[C@H](O)C[C@@H]4C[C@H](O)CC[C@]4(C)[C@H]3C[C@H](O)[C@]12C      736.769
1  C[C@H](CCC(=O)O)[C@H]1CC[C@H]2[C@@H]3[C@@H](O)C[C@@H]4C[C@H](O)CC[C@]4(C)[C@H]3CC[C@]12C      687.968
2  C[C@H](CCC(=O)O)[C@H]1CC[C@H]2[C@@H]3CC[C@@H]4C[C@H](O)CC[C@]4(C)[C@H]3CC[C@]12C      814.863
3  C[C@H](CCC(=O)O)[C@H]1CC[C@H]2[C@@H]3[C@H](O)C[C@@H]4C[C@H](O)CC[C@]4(C)[C@H]3CC[C@]12C      876.524

====

molecular target: human TAS2R1 (Homo sapiens); construct: expressed in transfected cells; host or cells: HEK293T-Gα16gust44; experiment: Calcium imaging assay (FLIPR), HEK293T-Gα16gust44 cells transfected with human TAS2R1; type: cell-based; conditions: Time 155.562 s
Each entry below lists one item and its recorded RLU value.
parameter: RLU (RLU)

>>> print(df.to_string())
                            chemical_string                  system_name  units_of_measure  assay_value
0  C[C@H](CCC(=O)O)[C@H]1CC[C@H]2[C@@H]3[C@H](O)C[C@@H]4C[C@H](O)CC[C@]4(C)[C@H]3CC[C@]12C  human TAS2R1 (Homo sapiens)               RLU      464.959
1  C[C@H](CCC(=O)O)[C@H]1CC[C@H]2[C@@H]3[C@H](O)C[C@@H]4C[C@H](O)CC[C@]4(C)[C@H]3C[C@H](O)[C@]12C  human TAS2R1 (Homo sapiens)               RLU      268.743
2  C[C@H](CCC(=O)O)[C@H]1CC[C@H]2[C@@H]3[C@@H](O)C[C@@H]4C[C@H](O)CC[C@]4(C)[C@H]3CC[C@]12C  human TAS2R1 (Homo sapiens)               RLU      166.486
3  C[C@H](CCC(=O)O)[C@H]1CC[C@H]2[C@@H]3CC[C@@H]4C[C@H](O)CC[C@]4(C)[C@H]3CC[C@]12C  human TAS2R1 (Homo sapiens)               RLU          645

====

List of RLU values.
Target: human TAS2R1 (Homo sapiens)
Construct: expressed in transfected cells; host or cells: HEK293T-Gα16gust44
Sequence (Q9NYW7 1-299): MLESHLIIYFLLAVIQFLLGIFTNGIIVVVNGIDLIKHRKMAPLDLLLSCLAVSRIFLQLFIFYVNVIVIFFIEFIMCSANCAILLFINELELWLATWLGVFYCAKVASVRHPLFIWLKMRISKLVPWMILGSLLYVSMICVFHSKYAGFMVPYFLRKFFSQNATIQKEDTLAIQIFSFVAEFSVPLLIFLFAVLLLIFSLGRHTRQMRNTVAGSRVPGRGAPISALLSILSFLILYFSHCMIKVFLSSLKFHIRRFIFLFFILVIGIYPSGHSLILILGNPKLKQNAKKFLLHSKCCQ
Test: Calcium imaging assay (FLIPR), HEK293T-Gα16gust44 cells transfected with human TAS2R1
Assay type: cell-based
Settings: Time 56.781 s
parameter: RLU (RLU)

compound	system.name	parameter	units.of.measure	assay.value
C[C@H](CCC(=O)NCC(=O)O)[C@H]1CC[C@H]2[C@@H]3[C@H](O)C[C@@H]4C[C@H](O)CC[C@]4(C)[C@H]3C[C@H](O)[C@]12C [Glycocholic Acid, glycocholic acid]	human TAS2R1 (Homo sapiens)	RLU	RLU	600.065
C[C@H](CCC(=O)O)[C@H]1CC[C@H]2[C@@H]3CC[C@@H]4C[C@H](O)CC[C@]4(C)[C@H]3C[C@H](O)[C@]12C [Deoxycholic Acid, deoxycholic acid]	human TAS2R1 (Homo sapiens)	RLU	RLU	369.818
C[C@H](CCC(=O)NCCS(=O)(=O)O)[C@H]1CC[C@H]2[C@@H]3[C@H](O)C[C@@H]4C[C@H](O)CC[C@]4(C)[C@H]3C[C@H](O)[C@]12C [Taurocholic Acid, taurocholic acid]	human TAS2R1 (Homo sapiens)	RLU	RLU	396.221
C[C@H](CCC(=O)NCCS(=O)(=O)O)[C@H]1CC[C@H]2[C@@H]3CC[C@@H]4C[C@H](O)CC[C@]4(C)[C@H]3CC[C@]12C [Taurolithocholic Acid, taurolithocholic acid]	human TAS2R1 (Homo sapiens)	RLU	RLU	680.566
